Experiment: Tested for Clearance upon iv administration to african green monkey
Format: ADME, organism-based
Conditions: cercopithecidae, in vivo
propertyName: clearance
Your answer should be a number followed by the unit of measure.

[in] Which clearance value is on record for `CS(=O)(=O)Nc1cc([C@@H](O)CN[C@H](Cc2ccccc2)c2ccc(OC(F)F)cc2)ccc1O` ?
[out] 36 mL/min/kg

###

System: ADRB2+ADRB3 (+)
Test: Tested for binding selectivity to beta3 adrenoceptor versus beta2 adrenoceptor
propertyName: Selectivity ratio
Give bare numbers.

[in] Please state recorded Selectivity ratio (tested on ADRB2+ADRB3 (+)) of CS(=O)(=O)Nc1cc(C(O)CNC(Cc2ccccc2)c2nccs2)ccc1O (stereo not drawn)
[out] 0.6

Hey, quick one: what's Selectivity ratio for each of these?
1. CS(=O)(=O)Nc1cc(C(O)CNC(Cc2ccccc2)c2ccc(S(C)(=O)=O)cc2)ccc1O (stereo not drawn)
2. CS(=O)(=O)Nc1cc([C@@H](O)CNC(Cc2ccccc2)c2ccc(OC(F)(F)F)cc2)ccc1O (stereo partly drawn)
3. COc1ccc([C@@H](Cc2ccccc2)NC[C@H](O)c2ccc(O)c(NS(C)(=O)=O)c2)c2ccccc12
4. C[C@](Cc1ccccc1)(NC[C@H](O)c1ccc(O)c(NS(C)(=O)=O)c1)c1ccc(OC(F)F)cc1
5. CS(=O)(=O)Nc1cc(C(O)CNC(Cc2ccccc2)c2ccc3sccc3c2)ccc1O (stereo not drawn)
6. CS(=O)(=O)Nc1cc(C(O)CNC(Cc2ccccc2)c2ccncc2)ccc1O (stereo not drawn)
7. COc1ccc([C@@H](Cc2ccccc2)NC[C@H](O)c2ccc(O)c(NS(C)(=O)=O)c2)cn1
8. CS(=O)(=O)Nc1cc([C@@H](O)CN[C@H](Cc2ccccc2)c2ccc(C#N)cc2)ccc1O

[out]
1: 3; 2: 2; 3: 9; 4: 14; 5: 2; 6: 8; 7: 30; 8: 4

Every entry's value here was drawn from ChEMBL document CHEMBL1133858.
